# system-name: USP30 (Homo sapiens, UniProt Q70CQ3)
# Sequence (Q70CQ3 57-517): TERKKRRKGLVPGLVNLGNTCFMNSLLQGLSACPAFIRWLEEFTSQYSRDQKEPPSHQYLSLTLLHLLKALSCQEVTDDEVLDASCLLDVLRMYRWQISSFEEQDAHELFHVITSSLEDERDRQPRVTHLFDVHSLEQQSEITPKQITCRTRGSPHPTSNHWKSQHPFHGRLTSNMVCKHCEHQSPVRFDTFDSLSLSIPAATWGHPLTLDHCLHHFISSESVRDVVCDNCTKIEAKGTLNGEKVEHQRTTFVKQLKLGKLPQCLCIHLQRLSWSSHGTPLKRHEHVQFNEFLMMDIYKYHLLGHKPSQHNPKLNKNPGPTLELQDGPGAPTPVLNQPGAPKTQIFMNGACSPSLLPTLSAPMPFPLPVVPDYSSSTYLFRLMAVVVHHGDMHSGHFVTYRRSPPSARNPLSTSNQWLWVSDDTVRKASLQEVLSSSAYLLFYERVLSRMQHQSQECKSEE
# procedure-text: High-throughput screening, Ub-RhoMP, single dose 1.25 µM
# Type: biochemical
# Design: USP30 CD (57-517); purchased Ubiquigent 64-0057-050
# condition-context: crude in-plate synthesized compound, 1.25 µM assuming full conversion
Use 70% as the dividing line for %inhibition USP30, with the line itself on the Fulfilled side and lower values as Not fulfilled.

| compound | system-name | classification |
| --- | --- | --- |
| N#CN1CC[C@@H](NC(=O)CCN(Cc2ccccc2)S(=O)(=O)c2c(Cl)cccc2Cl)C1 | USP30 (Homo sapiens, UniProt Q70CQ3) | Fulfilled |

Query block: Please check the record N#CN1CC[C@@H](NC(=O)Cc2csc(-c3cnccn3)n2)C1 and state if its %inhibition USP30 is at or above 70%.
Result block: Not fulfilled

Query block: Please check the record N#CN1CC[C@@H](NC(=O)c2nc(N3CCCC3)ncc2Cl)C1 and state if its %inhibition USP30 is at or above 70%.
Result block: Not fulfilled

Query block: Please check the record N#CN1CC[C@@H](NC(=O)c2ncoc2-c2cccs2)C1 and state if its %inhibition USP30 is at or above 70%.
Result block: Fulfilled

Query block: Please check the record N#CN1CC[C@@H](NC(=O)C(Cc2c[nH]cn2)NS(=O)(=O)c2ccc(Cl)cc2)C1 (stereo partly drawn) and state if its %inhibition USP30 is at or above 70%.
Result block: Not fulfilled

###

# system-name: mUSP18 (Mus musculus, UniProt Q9WTV6)
# Construct: (46-368); His-tag (N); made in house
# Sequence (Q9WTV6 46-368): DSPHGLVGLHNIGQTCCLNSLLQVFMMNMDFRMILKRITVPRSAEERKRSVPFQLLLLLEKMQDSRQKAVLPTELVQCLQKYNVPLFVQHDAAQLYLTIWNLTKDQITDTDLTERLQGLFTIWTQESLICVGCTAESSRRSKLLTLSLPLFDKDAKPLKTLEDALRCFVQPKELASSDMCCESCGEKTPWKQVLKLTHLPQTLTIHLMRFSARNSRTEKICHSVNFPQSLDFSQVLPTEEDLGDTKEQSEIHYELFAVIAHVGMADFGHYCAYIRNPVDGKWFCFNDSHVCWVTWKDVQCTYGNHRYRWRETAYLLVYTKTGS
# procedure-text: High-throughput screening, ISG15ct-RhoMP, single dose 1.25 µM
# Type: biochemical, murine
# condition-context: mUSP18 %inhibition; carboxylic acid (CA) building block alone; read-out: %inh CA only
Below, each entry is listed alongside its reported inhibition at 1.25 µM.
The answer is to be given in %; state only the numeric part.

| compound-structure | property | observed |
| --- | --- | --- |
| O=C(O)Cc1csc(COc2ccc(Cl)cc2)n1 | inhibition at 1.25 µM | 15.8 |

Query block: Can you share its inhibition at 1.25 µM? I mean this molecule: Cc1cc(COc2ccc(C(=O)O)cc2Br)no1
Result block: 1.45

Query block: Can you share its inhibition at 1.25 µM? I mean this molecule: O=C(O)c1ccccc1I
Result block: -4.47

Query block: Can you share its inhibition at 1.25 µM? I mean this molecule: O=C(O)C1CC1
Result block: -6.84

Query block: Can you share its inhibition at 1.25 µM? I mean this molecule: Cc1nnnn1-c1cc(C(=O)O)cc(C(F)(F)F)c1
Result block: 9.55

Query block: Can you share its inhibition at 1.25 µM? I mean this molecule: Cn1ccnc1CN1CCC(C(=O)O)CC1
Result block: -0.25

Query block: Can you share its inhibition at 1.25 µM? I mean this molecule: Cn1cc(S(=O)(=O)NCc2ccco2)cc1C(=O)O
Result block: 2.07

###

# system-name: USP16 (Homo sapiens)
# procedure-text: High-throughput screening, Ub-RhoMP, single dose 1.25 µM
# Format: biochemical
# Parameters: (22-823); His-tag (N); made in house
# condition-context: crude in-plate synthesized compound, 1.25 µM assuming full conversion
Below, each entry is listed alongside its reported %inhibition USP16.
The answer is to be given in %; state only the numeric part.

Past entries and their recorded results:
| compound | observed |
| --- | --- |
| N#CN1CC[C@@H](NC(=O)C(Cc2c[nH]cn2)NS(=O)(=O)c2ccc(Cl)cc2)C1 (some centres unmarked) [BB01CA91] | 7.7 |
| N#CN1CC[C@@H](NC(=O)CCN(Cc2ccccc2)S(=O)(=O)c2c(Cl)cccc2Cl)C1 [BB01CA93] | 20.5 |
| N#CN1CC[C@@H](NC(=O)Cc2csc(-c3cnccn3)n2)C1 [BB01CA92] | 15.0 |
| N#CN1CC[C@@H](NC(=O)c2ncoc2-c2cccs2)C1 [BB01CA94] | 11.4 |

Consider the additional compound presented here.
Query block: Can you share its %inhibition USP16? I mean this compound: N#CN1CC[C@@H](NC(=O)c2nc(N3CCCC3)ncc2Cl)C1 [BB01CA90]
Result block: 11.4

###

# system-name: mUSP18 (Mus musculus, UniProt Q9WTV6)
# Construct: (46-368); His-tag (N); made in house
# Sequence (Q9WTV6 46-368): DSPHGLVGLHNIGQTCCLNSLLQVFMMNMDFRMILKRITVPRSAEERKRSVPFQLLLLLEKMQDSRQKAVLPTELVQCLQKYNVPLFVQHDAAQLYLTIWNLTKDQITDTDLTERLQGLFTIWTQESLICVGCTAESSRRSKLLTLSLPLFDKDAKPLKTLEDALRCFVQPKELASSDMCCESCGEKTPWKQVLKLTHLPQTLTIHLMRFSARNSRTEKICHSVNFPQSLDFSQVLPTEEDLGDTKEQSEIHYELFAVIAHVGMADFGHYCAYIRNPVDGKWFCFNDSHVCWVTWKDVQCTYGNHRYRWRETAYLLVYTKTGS
# procedure-text: High-throughput screening, ISG15ct-RhoMP, single dose 1.25 µM
# Type: biochemical, murine
# condition-context: mUSP18 %inhibition; carboxylic acid (CA) with coupling reagents DIC/HOBT; read-out: %inh CA + DIC/HOBT
property: inhibition at 1.25 µM (%)
The answer is to be given in %; state only the numeric part.

Past entries and their recorded results:
| compound | property | observed |
| --- | --- | --- |
| Cc1oc(-c2ccco2)nc1CC(=O)O | inhibition at 1.25 µM | 9.87 |
| O=C(NNc1ccc(C(=O)O)cc1)OCC1c2ccccc2-c2ccccc21 | inhibition at 1.25 µM | 23.4 |
| Cc1ccccc1-n1cc(C(=O)O)cn1 | inhibition at 1.25 µM | 4.15 |
| Cc1cc(C(=O)O)ccc1Br | inhibition at 1.25 µM | -11 |

Query block: Can you share its inhibition at 1.25 µM? I mean this compound: Cn1ccnc1CN1CCC(C(=O)O)CC1
Result block: -2.62

Query block: Can you share its inhibition at 1.25 µM? I mean this compound: COc1ccc(S(=O)(=O)N(CCC(=O)O)Cc2ccccc2)cc1
Result block: -12.6

Query block: Can you share its inhibition at 1.25 µM? I mean this compound: Cc1sc(-n2cnnn2)c(C(=O)O)c1C
Result block: 4.6

###

Below, each entry is listed alongside its reported BB %inhibition USP16.
# system-name: USP16 (Homo sapiens, UniProt Q9Y5T5)
# Sequence (Q9Y5T5 22-823): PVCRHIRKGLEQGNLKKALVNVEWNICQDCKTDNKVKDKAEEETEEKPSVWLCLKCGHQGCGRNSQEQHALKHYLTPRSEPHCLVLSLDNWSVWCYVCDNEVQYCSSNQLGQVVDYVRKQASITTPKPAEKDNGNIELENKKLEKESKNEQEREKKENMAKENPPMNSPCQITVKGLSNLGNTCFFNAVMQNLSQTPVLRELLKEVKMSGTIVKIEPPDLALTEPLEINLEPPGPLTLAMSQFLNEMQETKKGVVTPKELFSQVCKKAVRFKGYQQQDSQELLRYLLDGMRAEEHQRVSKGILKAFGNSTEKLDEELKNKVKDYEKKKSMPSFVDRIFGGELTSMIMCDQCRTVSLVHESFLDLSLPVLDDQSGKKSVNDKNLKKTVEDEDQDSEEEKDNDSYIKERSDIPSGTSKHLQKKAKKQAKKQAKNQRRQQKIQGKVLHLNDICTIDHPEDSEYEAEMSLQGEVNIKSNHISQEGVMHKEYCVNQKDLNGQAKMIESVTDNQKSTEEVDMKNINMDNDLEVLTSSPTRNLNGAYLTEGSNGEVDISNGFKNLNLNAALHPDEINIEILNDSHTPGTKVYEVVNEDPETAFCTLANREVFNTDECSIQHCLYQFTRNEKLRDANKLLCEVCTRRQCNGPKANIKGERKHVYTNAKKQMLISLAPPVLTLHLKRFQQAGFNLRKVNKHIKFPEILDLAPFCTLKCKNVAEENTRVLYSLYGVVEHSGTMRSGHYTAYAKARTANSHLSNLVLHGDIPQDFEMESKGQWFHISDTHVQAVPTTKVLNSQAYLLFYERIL
# procedure-text: High-throughput screening, Ub-RhoMP, single dose 1.25 µM
# Format: biochemical
# Set-up: (22-823); His-tag (N); made in house
# condition-context: individual amine building block (plate NCN-5)
The answer is to be given in %; state only the numeric part.

| compound | observed |
| --- | --- |
| N#CN1CC[C@H](CN)C1 | -4.8 |
| N#CN1C[C@H]2C[C@H](N)C[C@H]2C1 | -1.2 |
| N#CN1CC(N)C1 | 1.2 |
| N#CN1CC[C@H](C(=O)Nc2nc3c(s2)CNCC3)C1 | -2.4 |
| N#CN1CCC(N)CC1 | 8.1 |

Query block: Can you share its BB %inhibition USP16? I mean this compound: N#CN1CCC[C@@H](N)C1
Result block: 5.0

Query block: Can you share its BB %inhibition USP16? I mean this compound: N#CN1C[C@@H]2C[C@H]1CN2
Result block: -5.0
